Values compiled from paper PMC9736855.

- Study System: CDK2 (Homo sapiens, UniProt P24941)
- Construct: purchased in-house DSF panel (SGC Frankfurt)
- Experimental Protocol: DSF
- Type: binding
- Condition Context: 10 μM compound
Value Kind: ΔTm at 10 µM (°C)

CC(=O)NCCCCCCNc1nccc(Nc2cc(C3CC3)n[nH]2)n1
11.3
COC(=O)c1cc(Nc2ccnc(NCc3ccc(CNC(=O)OC(C)(C)C)cc3)n2)[nH]n1 [21g]
3.3
CC(C)(C)OC(=O)NCCCCCCNc1nccc(Nc2cc(C3CC3)n[nH]2)n1 [11e]
11.2
COC(=O)c1cc(Nc2ccnc(Nc3ccc(CCN)cc3)n2)n[nH]1
3
COC(=O)c1cc(Nc2nc(Nc3cccc(CCNC(=O)OC(C)(C)C)c3)ncc2Cl)[nH]n1 [22b]
2.1

(A) COC(=O)c1cc(Nc2nc(NCCCCCCNC(=O)OC(C)(C)C)ncc2Cl)[nH]n1 [22e]
(B) COC(=O)c1cc(Nc2ccnc(Nc3ccc(CC#N)cc3)n2)[nH]n1 [21f]
Among A and B , which shows a numerically higher ΔTm at 10 µM result? Field: selected label. Fill in the label of the entry you choose. B

(P) CC(C)c1cc(Nc2ccnc(Nc3ccc(CCNC(=O)OC(C)(C)C)cc3)n2)[nH]n1 [39a]
(Q) CC(C)OC(=O)c1cc(Nc2ccnc(NCCCCCNC(=O)OC(C)(C)C)n2)n[nH]1 [42b]
For the pair P and Q , which member has the lower ΔTm at 10 µM number? Field: selected label. Fill in the label of the entry you choose. Q

###

- Study System: DAPK3 (Homo sapiens, UniProt O43293)
- Construct: purchased in-house DSF panel (SGC Frankfurt)
- Sequence (O43293 9-289): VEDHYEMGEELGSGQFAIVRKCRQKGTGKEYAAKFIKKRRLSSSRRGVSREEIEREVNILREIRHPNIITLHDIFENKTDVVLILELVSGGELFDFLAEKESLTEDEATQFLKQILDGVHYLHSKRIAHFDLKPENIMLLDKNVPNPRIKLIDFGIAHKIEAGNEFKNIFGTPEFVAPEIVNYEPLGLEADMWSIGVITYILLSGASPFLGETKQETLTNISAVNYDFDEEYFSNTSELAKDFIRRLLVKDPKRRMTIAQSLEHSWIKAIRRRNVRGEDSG
- Experimental Protocol: DSF
- Assay type: binding
Value Kind: ΔTm DAPK3 (°C)

COC(=O)c1cc(Nc2ccnc(NCCOCCNC(=O)OC(C)(C)C)n2)[nH]n1 [21d]
3.3
CC(C)OC(=O)c1cc(Nc2ccnc(NCc3ccc(NC(=O)OC(C)(C)C)cc3)n2)n[nH]1 [42d]
0.1
N#CCc1ccc(Nc2nccc(Nc3cc(C4CC4)[nH]n3)n2)cc1 [compound 1, reference compound]
9.7

(I) CC(C)(C)OC(=O)Nc1ccc(CNc2nccc(Nc3cc(C(=O)OC(C)(C)C)[nH]n3)n2)cc1 [43d]
(II) COC(=O)c1cc(Nc2ccnc(NCc3ccc(NC(=O)OC(C)(C)C)cc3)n2)[nH]n1 [21i]
Among I and II , which shows a numerically higher ΔTm DAPK3 result? Field: selected label. Fill in the label of the entry you choose. I
(I: 0.3 °C, II: -0.6 °C)

###

- Study System: CDK2/Cyclin A1 (Homo sapiens, UniProt P24941)
- Construct: Full-length kinases were obtained as plasmids cloned in frame with a terminal NanoLuc-fusion; CS1810C172 (CCNA1)
- Experimental Protocol: NanoBRET
- Condition Context: read-out: NanoBRET EC50 ± SEM CDK2/Cyclin A1
pEC50: −log10 of the molar value.
Value Kind: pEC50

(I) CC(C)OC(=O)c1cc(Nc2ccnc(NCc3ccc(NC(=O)OC(C)(C)C)cc3)n2)n[nH]1 [42d]
(II) CC(C)(C)OC(=O)Nc1ccc(CNc2nccc(Nc3cc(C(=O)OC(C)(C)C)[nH]n3)n2)cc1 [43d]
For the pair I and II , which member has the lower pEC50 number? Field: selected label. Fill in the label of the entry you choose. I
